Listed next: entries and their corresponding inhibition of growth at 5 µM.
- Test system: Toxoplasma gondii RH-2F tachyzoites
- ASSAY_PROTOCOL: microbe, parasite or virus in culture
- MEASUREMENT_CONTEXT: 72 h, read-out: Parasite inhibition (%) mean, preliminary screen of compound library, mean
Give the number; % is assumed, so skip it.

Use the examples below as a reference point.
Cc1ccc(NC(=O)c2cccc(C(C)(C)C#N)c2)cc1Nc1ccc2ncn(C)c(=O)c2c1 [AZ628]; 0.6
c1ccc2c(-c3cnn4cc(-c5ccc(N6CCNCC6)cc5)cnc34)ccnc2c1 [LDN193189]; 21.7
COc1ccc(Cl)cc1C(=O)NCCc1ccc(S(=O)(=O)NC(=O)NC2CCCCC2)cc1 [Glyburide (Diabeta)]; 1.9
CCNC(=O)Nc1ccc(-c2nc3c(c(N4CCOC[C@@H]4C)n2)CCN(C2COC2)C3)cc1 [GDC-0349]; -13.8
COc1ccc(-c2cc3c(C)nc(N)nc3n([C@H]3CC[C@H](OCCO)CC3)c2=O)cn1 [PF-04691502]; 11.5
Nc1ccn(C[C@@H](CO)OCP(=O)(O)O)c(=O)n1 [Cidofovir (Vistide)]; 0.8
COc1cc(C(C)=O)ccc1OCCCN1CCC(c2noc3cc(F)ccc23)CC1 [Iloperidone (Fanapt)]; 37.8
CC(C)C[C@H](NC(=O)[C@H](CCc1ccccc1)NC(=O)CN1CCOCC1)C(=O)N[C@@H](Cc1ccccc1)C(=O)N[C@@H](CC(C)C)C(=O)[C@@]1(C)CO1 [Carfilzomib (PR-171)]; -3.5

In: Can you share its inhibition of growth at 5 µM? I mean this compound: CN1CCN2c3ncccc3Cc3ccccc3C2C1 (centres unmarked) [Mirtazapine (Remeron, Avanza)]
Out: 33.1

In: Also need CC(C)(O)[C@H]1CC[C@@](C)([C@@H]2[C@@H](O)C[C@@]3(C)[C@@H]4C[C@H](O[C@@H]5O[C@H](CO)[C@@H](O)[C@H](O)[C@@H]5O)[C@H]5C(C)(C)[C@@H](O[C@@H]6OC[C@@H](O)[C@H](O)[C@H]6O)CC[C@@]56C[C@]46CC[C@]23C)O1 [Astragaloside A] , thanks.
Out: 15.5

In: Queued: COc1ccc(CN=c2[nH]c(N3CCC[C@H]3CO)ncc2C(=O)NCc2ncccn2)cc1Cl [Avanafil]
Out: 7.5

In: Field entry: CC1(C)S[C@@H]2[C@H](NC(=O)[C@H](N)c3ccc(O)cc3)C(=O)N2[C@@H]1C(=O)O [Amoxicillin sodium (Amox)]
Out: 9.1

In: Input CCCCOc1ccc(C(=O)Nc2ccc(F)cc2F)cc1 [VU 0357121]
Out: 0.1

In: Next compound: CC=CC1=C(C(=O)O)N2C(=O)[C@@H](NC(=O)[C@H](N)c3ccc(O)cc3)[C@H]2SC1 (mixture of isomers) [Cefprozil hydrate (Cefzil)]
Out: 12.3

----------
- ASSAY_PROTOCOL: in vitro
- MEASUREMENT_CONTEXT: human, Host viability (%) mean
Counter-ions that a name gives are not always drawn.
Criterion: viability at 72 h strictly less than 60%. Met: 1 (yes). Not met: 0 (no).

In: Regarding CCOC(=O)CCNc1cc(N2CCc3ccccc3CC2)nc(-c2ccccn2)n1 [GSK-J4 HCl] , kindly confirm whether its viability at 72 h is beneath 60%.
Out: 0 (no)

In: Queued: CO[C@@H](C(=O)N1Cc2n[nH]c(NC(=O)c3ccc(N4CCN(C)CC4)cc3)c2C1)c1ccccc1
Out: 0 (no)

In: Record: CC1(C)CCC(CN2CCN(c3ccc(C(=O)NS(=O)(=O)c4ccc(NCC5CCOCC5)c([N+](=O)[O-])c4)c(Oc4cnc5[nH]ccc5c4)c3)CC2)=C(c2ccc(Cl)cc2)C1
Out: 1 (yes)

----------
- ASSAY_PROTOCOL: in vitro
- MEASUREMENT_CONTEXT: human, Host viability (%) mean
READOUT_KIND: viability at 72 h (%)
Number only, in %; omit the unit.

In: Please look up its viability at 72 h: COc1ccc(-c2nc(N3CCOCC3)c3sc(CN(C)c4ncc(C(=O)NO)cn4)cc3n2)cn1 [PI3K/HDAC Inhibitor I]
Out: 72.1

In: Next compound up: COc1cc2nccc(Oc3ccc(NC(=O)NC4CC4)c(Cl)c3)c2cc1C(N)=O [E7080 (Lenvatinib)]
Out: 52.1

In: # repeat for Cc1csc(-c2nnc(Nc3ccc(Oc4ncccc4-c4ccnc(N)n4)cc3)c3ccccc23)c1 [AMG 900]
Out: 33.6

In: One more compound: Cn1cc(CNCC2CCN(c3ncc(C(=O)NO)cn3)CC2)c2ccccc21 [JNJ-26481585]
Out: 70.5

----------
- ASSAY_PROTOCOL: in vitro
- MEASUREMENT_CONTEXT: human, Host viability (%) Mean ± SD
Structures can show the parent of a compound that is named as a salt.
Documented viability at 72 h, 5 µM across a set of molecules
# output: bare number, implied unit %

In: Data request, read-out viability at 72 h, 5 µM, for CC(C)C[C@@H](C(=O)N[C@H](C(=O)OC1CCCC1)c1ccccc1)[C@H](O)C(=O)NO [CHR2797, reference compound]
Out: 88.8

In: Item: Nc1ccccc1NC(=O)c1ccc(CNc2nccc(-c3cccnc3)n2)cc1 [Mocetinostat, reference compound]
Out: 80.2

In: Note, next up: Nc1ccccc1NC(=O)c1ccc(CNC(=O)OCc2cccnc2)cc1 [Entinostat, reference compound]
Out: 81.6

In: // next record CN1CCC(=C2c3ccccc3C=Cc3ccccc32)CC1 [Cyproheptadine HCl, reference compound]
Out: 90.6

----------
- ASSAY_PROTOCOL: in vitro
- MEASUREMENT_CONTEXT: human, Host viability (%) Mean ± SD
Counter-ions that a name gives are not always drawn.
# if measured viability at 72 h, 5 µM < 90%: Satisfied  # else: Not satisfied

Some solved entries appear below for comparison.
Cc1cc(F)c(Nc2ncnc3cc(OCc4ccccc4)ccc23)cc1O [ZM 323881 HCl, reference compound]; Satisfied
Cc1[nH]c(/C=C2\C(=O)Nc3ccc(S(=O)(=O)Cc4c(Cl)cccc4Cl)cc32)c(C)c1C(=O)N1CCC[C@@H]1CN1CCCC1 [PHA-665752, reference compound]; Satisfied

In: I'd appreciate it if you could check whether O=C(C[S+]([O-])Cc1ccco1)NC/C=C\COc1cc(CN2CCCCC2)ccn1 (stereo not shown) [Lafutidine, reference compound] has viability at 72 h, 5 µM smaller than 90%.
Out: Not satisfied

----------
- System: Toxoplasma gondii RH-2F tachyzoites
- ASSAY_PROTOCOL: microbe, parasite or virus in culture
- MEASUREMENT_CONTEXT: 72 h, read-out: Parasite inhibition (%) mean, preliminary screen of compound library, mean
READOUT_KIND: inhibition of growth at 5 µM (%)
The figure you give is taken to be in %; do not add the unit.

Examples from the recorded data:
N[C@@H](CC(=O)N1CCn2c(nnc2C(F)(F)F)C1)Cc1cc(F)c(F)cc1F [Sitagliptin phosphate monohydrate]; 1.1
Nc1ncnc2c1ncn2[C@@H]1O[C@@H](COP(=O)(O)OP(=O)(O)OP(=O)(O)O)[C@@H](O)[C@H]1O [ATP (Adenosine-Triphosphate)]; -56.8
COC(=O)C1=C(C)NC(C)=C(C(=O)OCCN2CCN(C(c3ccccc3)c3ccccc3)CC2)C1c1cccc([N+](=O)[O-])c1 (stereo not drawn); 1.1
Cn1nc(C(C)(C)C)cc1C(=O)N[C@@H](Cc1cccc(Cl)c1)C(=O)NCC#N; 21.5
Cc1cc(C)c(/C=C2\C(=O)Nc3ccccc32)[nH]1 [Semaxanib (SU5416)]; -78.8
O=C1NC(=O)/C(=C/c2ccc3c(c2)OC(F)(F)O3)S1; 0.8
C[C@]12N[C@H](Cc3ccccc31)c1ccccc12; 0.4
Cc1cnc(CNC(=O)c2c(=O)c3ccc(N4CCCN(C)CC4)nc3n3c2sc2ccccc23)cn1; 2.5
CC(C)n1nc(-c2ccc3oc(N)nc3c2)c2c(N)ncnc21; 27.8
NC(Cc1c[nH]c2ccc(O)cc12)C(=O)O (stereo not drawn) [5-hydroxytryptophan (5-HTP)]; 0

In: Which inhibition of growth at 5 µM value is on record for CN1CCN(C(=O)c2cc3cc(Cl)ccc3[nH]2)CC1 ?
Out: 67.4

In: One more compound: CC(=O)O[C@H]1CC[C@@]2(C)C(=CC[C@H]3[C@H]2CC[C@]2(C)C(c4cccnc4)=CC[C@@H]32)C1 [Abiraterone Acetate (CB7630)]
Out: 0.7

In: Further, for CC(C(=O)[O][Ca][O]C(=O)C(C)c1cccc(Oc2ccccc2)c1)c1cccc(Oc2ccccc2)c1 (stereo not drawn) ?
Out: 27.4

In: How about O=S(=O)(O)Oc1ccc(C(c2ccc(OS(=O)(=O)O)cc2)c2ccccn2)cc1 [Sodium Picosulfate] ?
Out: 0.3

In: Ok, now COc1ccc(-c2nc(N3CCOCC3)c3sc(CN(C)c4ncc(C(=O)NO)cn4)cc3n2)cn1
Out: 78.4
